Measured On: FXR (Homo sapiens)
Construct: using a full length FXR on a natural response element; expressed in transfected cells
Sequence (Q96RI1 1-486): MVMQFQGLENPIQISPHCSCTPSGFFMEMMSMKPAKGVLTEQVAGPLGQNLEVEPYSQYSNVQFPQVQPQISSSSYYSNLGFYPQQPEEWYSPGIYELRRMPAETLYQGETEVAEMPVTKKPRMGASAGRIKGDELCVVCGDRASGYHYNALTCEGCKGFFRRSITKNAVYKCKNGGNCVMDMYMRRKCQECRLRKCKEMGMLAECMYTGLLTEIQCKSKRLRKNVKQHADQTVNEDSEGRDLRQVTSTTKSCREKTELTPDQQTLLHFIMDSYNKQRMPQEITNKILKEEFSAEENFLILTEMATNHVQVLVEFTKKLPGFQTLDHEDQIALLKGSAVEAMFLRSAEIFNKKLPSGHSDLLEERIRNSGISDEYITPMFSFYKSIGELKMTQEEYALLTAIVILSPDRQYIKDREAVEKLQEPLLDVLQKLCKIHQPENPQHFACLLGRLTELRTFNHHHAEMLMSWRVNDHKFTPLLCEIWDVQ
Experiment Summary: cell-based transcription assay, FXR responsive promoter linked to a luciferase reporter
Parameters: scale not given here
Conditions: Tables 1-15; RE not defined in the source
Measured Quantity: RE
Enter a number only.

Prompt: Field request: RE | item: COCC=Cc1cccc(N(Cc2ccc(C=CC(=O)OC(C)(C)C)cc2)C(=O)C2CCCCC2)c1 [Compound 136]
Response: 1.88

Prompt: Field request: RE | item: COC(=O)/C=C/c1cccc(N(Cc2ccc(-c3ccc4c(c3)OCO4)cc2)C(=O)C2CCCCC2)c1 [Compound 244]
Response: 1.90

Prompt: Field request: RE | item: COC(=O)/C=C/c1cccc(N(Cc2ccc(-c3ccc(N(C)C)cc3)cc2)C(=O)NC(C)C)c1 [Compound 261]
Response: 1.01

Prompt: Field request: RE | item: COC(=O)C=Cc1cccc(N(Cc2ccc(C=CC(=O)O)cc2)C(=O)C2CCCCC2)c1 [Compound 104]
Response: 0.08

###

Measured On: FXR (Homo sapiens)
Construct: using a full length FXR on a natural response element; expressed in transfected cells
Experiment Summary: cell-based transcription assay, FXR responsive promoter linked to a luciferase reporter
Design: scale not given here
Conditions: Tables 1-15; RE not defined in the source
Measured Quantity: RE

Prompt: Field request: RE | item: COC(=O)/C=C/c1cccc(N(Cc2ccc(/C=C/C(=O)OC(C)(C)C)cc2)C(=O)C2CC2)c1 [Compound 140]
Response: 1.88

Prompt: Field request: RE | item: COC(=O)/C=C/c1cccc(N(Cc2ccc(/C=C/c3ccccc3F)cc2)C(=O)NC(C)C)c1 [Compound 194]
Response: 0.89

Prompt: Field request: RE | item: COC(=O)C=Cc1cccc(N(Cc2ccc(C=Cc3ccccc3)cc2)C(=O)C2CCCCC2)c1 [Compound 121]
Response: 1.55

Prompt: Field request: RE | item: COC(=O)/C=C/c1cccc(N(Cc2ccc(-c3cccc(OC)c3)cc2)C(=O)NC(C)C)c1 [Compound 225]
Response: 0.41

Prompt: Field request: RE | item: COC(=O)/C=C/c1cccc(N(Cc2ccc(-c3cccc(Cl)c3)cc2)C(=O)C2CCCCC2)c1 [Compound 232]
Response: 1.56

Prompt: Field request: RE | item: COC(=O)/C=C/c1cccc(N(Cc2ccc(/C=C/C(=O)OC(C)(C)C)cc2)C(=O)c2ccccc2)c1 [Compound 143]
Response: 1.96

Prompt: Field request: RE | item: COC(=O)/C=C/c1cccc(N(Cc2ccccc2Br)C(=O)C2CCCCC2)c1 [Compound 114]
Response: 0.11

Prompt: Field request: RE | item: COC(=O)/C=C/c1cccc(N(Cc2ccc(-c3ccc(C(C)(C)C)cc3)cc2)C(=O)NC(C)C)c1 [Compound 264]
Response: 1.02

Prompt: Field request: RE | item: COC(=O)/C=C/c1cccc(N(Cc2ccc(/C=C/c3ccc(F)cc3)cc2)C(=O)C(C)C)c1 [Compound 205]
Response: 1.19

Prompt: Field request: RE | item: COC(=O)/C=C/c1cccc(N(Cc2ccc(-c3ccc4c(c3)OCO4)cc2)C(=O)NC(C)C)c1 [Compound 246]
Response: 1.51

Prompt: Field request: RE | item: COC(=O)C=Cc1cccc(N(Cc2ccc(C=Cc3ccccn3)cc2)C(=O)C(C)C)c1 [Compound 208]
Response: 0.62

Prompt: Field request: RE | item: COC(=O)C=Cc1cccc(N(Cc2ccc(C=Cc3c(C)cc(C)cc3C)cc2)C(=O)C2CCCCC2)c1 [Compound 195]
Response: 0.24

Prompt: Field request: RE | item: COC(=O)/C=C/c1cccc(N(Cc2cccc(C(F)(F)F)c2)C(=O)C2CCCCC2)c1 [Compound 117]
Response: 0.12

Prompt: Field request: RE | item: COC(=O)C=Cc1cccc(N(Cc2ccc(C=Cc3scnc3C)cc2)C(=O)NC(C)C)c1 [Compound 212]
Response: 0.42

Prompt: Field request: RE | item: CCOC(=O)COc1cc(C=CC(=O)OC(C)(C)C)ccc1CN(C(=O)C1CCCCC1)c1cccc(C=CC(=O)OC)c1 [Compound 167]
Response: 0.16

Prompt: Field request: RE | item: CC(C)(C)OC(=O)C=Cc1ccc(CN(C(=O)C2CCCCC2)c2cccc(C=CC(=O)OC(C)(C)C)c2)cc1 [Compound 134]
Response: 1.06

Prompt: Field request: RE | item: COC(=O)/C=C/c1cccc(N(Cc2ccc(-c3ccc(N(C)C)cc3)cc2)C(=O)C(C)C)c1 [Compound 260]
Response: 1.07

Prompt: Field request: RE | item: COC(=O)C=Cc1cccc(N(Cc2ccc(C=CC(=O)OC(C)(C)C)cc2OC)C(=O)C2CCCCC2)c1 [Compound 162]
Response: 0.14

Prompt: Field request: RE | item: COC(=O)/C=C/c1cccc(N(Cc2ccc(-c3ccc(F)c(Cl)c3)cc2)C(=O)C2CCCCC2)c1 [Compound 247]
Response: 1.67

Prompt: Field request: RE | item: COC(=O)C=Cc1ccc(CN(C(=O)C2CCCCC2)c2cccc(C=CC(=O)OC)c2)cc1 [Compound 150]
Response: 0.87

Prompt: Field request: RE | item: COC(=O)/C=C/c1cccc(N(Cc2ccc(-c3cc(Cl)cc(Cl)c3)cc2)C(=O)C2CCCCC2)c1 [Compound 126]
Response: 0.95

Prompt: Field request: RE | item: COC(=O)/C=C/c1cccc(N(Cc2ccc(-c3ccc(SC)cc3)cc2)C(=O)C2CCCCC2)c1 [Compound 125]
Response: 1.74

Prompt: Field request: RE | item: COC(=O)/C=C/c1cccc(N(Cc2ccc(-c3ccc(SC)cc3)cc2)C(=O)NC(C)C)c1 [Compound 217]
Response: 0.23

Prompt: Field request: RE | item: COC(=O)/C=C/c1cccc(N(Cc2ccc(-c3cc(Cl)ccc3OC)cc2)C(=O)NC(C)C)c1 [Compound 243]
Response: 0.17

Prompt: Field request: RE | item: COC(=O)/C=C/c1cccc(N(Cc2ccc(-c3ccccc3OC)cc2)C(=O)C(C)C)c1 [Compound 219]
Response: 0.28

Prompt: Field request: RE | item: COC(=O)C=Cc1cccc(N(Cc2ccc(C=Cc3cccc(F)c3)cc2)C(=O)C2CCCCC2)c1 [Compound 201]
Response: 1.38

Prompt: Field request: RE | item: COC(=O)/C=C/c1cccc(N(C)C(=O)C2CCCCC2)c1 [Compound 147]
Response: 0.09

Prompt: Field request: RE | item: COC(=O)/C=C/c1cccc(N(Cc2ccc(-c3ccc(C)cc3)cc2)C(=O)C2CCCCC2)c1 [Compound 235]
Response: 1.38

Prompt: Field request: RE | item: COCC=Cc1ccc(CN(C(=O)C2CCCCC2)c2cccc(C=CC(=O)OC)c2)cc1 [Compound 156]
Response: 1.63

Prompt: Field request: RE | item: COC(=O)/C=C/c1cccc(N(Cc2ccc(/C=C/C(=O)OC(C)(C)C)cc2)C(=O)C2CCC2)c1 [Compound 141]
Response: 1.84
